Just for reference, paper PMC12093506 is where these values come from.

Give measured pIC50 for each item. Keep answers brief.
Biological target: α-glucosidase (maltase) enzyme from Yeast (Saccharomyces cerevisiae, UniProt P53341)
Construct: purchased Sisco Research Laboratories Pvt; Ltd
Sequence (P53341 whole entry): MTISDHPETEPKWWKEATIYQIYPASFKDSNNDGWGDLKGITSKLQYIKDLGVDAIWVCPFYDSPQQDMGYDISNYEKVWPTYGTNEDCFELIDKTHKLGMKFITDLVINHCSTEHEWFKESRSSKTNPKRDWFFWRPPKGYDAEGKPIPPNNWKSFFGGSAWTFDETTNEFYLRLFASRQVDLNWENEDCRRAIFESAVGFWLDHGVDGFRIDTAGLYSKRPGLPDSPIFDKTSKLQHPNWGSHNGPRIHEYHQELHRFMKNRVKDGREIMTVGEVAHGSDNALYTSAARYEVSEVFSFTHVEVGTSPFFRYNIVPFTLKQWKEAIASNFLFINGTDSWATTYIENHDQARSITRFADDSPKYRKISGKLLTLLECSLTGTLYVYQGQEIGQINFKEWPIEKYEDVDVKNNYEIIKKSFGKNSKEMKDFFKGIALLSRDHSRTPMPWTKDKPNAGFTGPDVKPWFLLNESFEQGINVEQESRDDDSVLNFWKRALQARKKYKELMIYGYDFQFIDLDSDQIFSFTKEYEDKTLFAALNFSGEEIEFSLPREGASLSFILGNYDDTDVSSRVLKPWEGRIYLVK
Experiment: biochemical
Assay type: biochemical
Conditions: yeast α-glucosidase (maltase) 1 U mL^−1, phosphate buffer pH 6.8, 37 °C; read-out: IC50 (α-glucosidase inhibition)
Description: The test compounds were evaluated for their α-glucosidase inhibitory activity following the methodology outlined by Pistia et al.[62] and Bhatia et al.[63] […] The compounds at varied concentrations ranging from 50 to 200 μg mL^−1 were combined with 50 μL of α-glucosidase (maltase) enzyme solution (1 U mL^−1) from Yeast (Sisco Research Laboratories Pvt. Ltd). […] The measurement was determined at a wavelength of 450 nm. […]
One number for each entry, as −log10 of the molar value.

Record excerpt, results attached:
O=C(C=Cc1ccc(Br)cc1)NNC(=O)C(c1cc(F)c(F)cc1F)C1CCCC1 (stereo not drawn)	7.31
O=C(C=Cc1cccc(Cl)c1)NNC(=O)C(c1cc(F)c(F)cc1F)C1CCCC1 (stereo not drawn)	7.72

Now for the molecule whose pIC50 we want.
Q: Could you tell me which pIC50 is on file for Cc1ccc(C=CC(=O)NNC(=O)C(c2cc(F)c(F)cc2F)C2CCCC2)cc1 (stereo not drawn) ?
A: 7.84

---

Give measured IC50 for each item. Keep answers brief.
molecular target: α-glucosidase (maltase) enzyme from Yeast (Saccharomyces cerevisiae, UniProt P53341); construct: purchased Sisco Research Laboratories Pvt; Ltd; experiment: biochemical; assay type: biochemical
One number for each entry, in µM.

Record excerpt, results attached:
O=C(C=Cc1cccc(Br)c1)NNC(=O)C(c1ccccc1)C1CCCC1 (stereo not shown) [Compound 6c]	0.0468
O=C(C=Cc1ccccc1)NNC(=O)C(c1ccccc1)C1CCCC1 (stereo not shown) [Compound 6a]	0.0798
Cc1ccc(C=CC(=O)NNC(=O)C(c2ccccc2)C2CCCC2)cc1 (stereo not shown) [Compound 6e]	0.233
O=C(C=Cc1ccccc1)NNC(=O)C(c1cc(F)c(F)cc1F)C1CCCC1 (stereo not shown) [Compound 7a]	0.0852
O=C(C=Cc1cccc(Br)c1)NNC(=O)C(c1cc(F)c(F)cc1F)C1CCCC1 (stereo not shown) [Compound 7f]	0.0332

// batch mode: one IC50 value per listed entry
1. O=C(C=Cc1ccc(Br)cc1)NNC(=O)C(c1ccccc1)C1CCCC1 (stereo not shown) [Compound 6d]
2. O=C(C=Cc1cccc([N+](=O)[O-])c1)NNC(=O)C(c1ccccc1)C1CCCC1 (stereo not shown) [Compound 6g]

A:
0.0648
0.0285
